test system: E. coli ATCC25922; assay: Bacterial growth minimal inhibitory concentration (CLSI broth microdilution); type: cell-based; details: Escherichia coli, ATCC25922; quinolone-sensitive strain; cation-adjusted Mueller-Hinton Broth
Task for the reader: assign each of the following compounds its reported MIC.
Answers are plain numbers, in µg/mL.

compound="CN1CC(C#Cc2ccc(-c3cc4n(c3)C(=O)N(CC[C@](C)(C(=O)NO)S(C)(=O)=O)C4)cc2)C1 [Example 85]" study_system="E. coli ATCC25922" unit_name=µg/mL observed_result=0.5
compound="C[C@@](CCN1Cc2cc(C#CC#CC3CN(C4CCOCC4)C3)cn2C1=O)(C(=O)NO)S(C)(=O)=O [Example 74]" study_system="E. coli ATCC25922" unit_name=µg/mL observed_result=0.25
compound="C[C@@](CCN1Cc2cc(C#CC#CC3CN(C4CSC4)C3)cn2C1=O)(C(=O)NO)S(C)(=O)=O [Example 75]" study_system="E. coli ATCC25922" unit_name=µg/mL observed_result=0.063
compound="C[C@@](CCN1Cc2cc(C#CC#CC3(F)CCN(C4CC4)C3)cn2C1=O)(C(=O)NO)S(C)(=O)=O (mixture of isomers) [Example 76]" study_system="E. coli ATCC25922" unit_name=µg/mL observed_result=0.125
compound="C[C@@](CCN1Cc2cc(C#Cc3ccc(C4(F)CNC4)cc3)cn2C1=O)(C(=O)NO)S(C)(=O)=O [Example 15]" study_system="E. coli ATCC25922" unit_name=µg/mL observed_result=0.5
compound="CN1CC(OC(=O)NCc2ccc(C#Cc3cc4n(c3)C(=O)N(CC[C@](C)(C(=O)NO)S(C)(=O)=O)C4)cc2)C1 [Example 27]" study_system="E. coli ATCC25922" unit_name=µg/mL observed_result=2

Q: For the compound shown here, CN1CC(C)(C#CC#Cc2cc3n(c2)C(=O)N(CC[C@](C)(C(=O)NO)S(C)(=O)=O)C3)C1 [Example 65] , give the reported MIC.
A: 1

Where these numbers come from: patent US10314823B2
